molecular target: human ROCK1 (Homo sapiens, UniProt Q13464); test: ROCK1 enzymatic test (LANCE, phosphorylation of Ulight-RRRSLLE (PLK) substrate); conditions: human recombinant enzyme, 1 μM ATP, 50 nM Ulight-RRRSLLE (PLK) substrate, 30 minutes at ambient temperature; read-out: ROCK1(h), IC50
Sequence (Q13464 whole entry): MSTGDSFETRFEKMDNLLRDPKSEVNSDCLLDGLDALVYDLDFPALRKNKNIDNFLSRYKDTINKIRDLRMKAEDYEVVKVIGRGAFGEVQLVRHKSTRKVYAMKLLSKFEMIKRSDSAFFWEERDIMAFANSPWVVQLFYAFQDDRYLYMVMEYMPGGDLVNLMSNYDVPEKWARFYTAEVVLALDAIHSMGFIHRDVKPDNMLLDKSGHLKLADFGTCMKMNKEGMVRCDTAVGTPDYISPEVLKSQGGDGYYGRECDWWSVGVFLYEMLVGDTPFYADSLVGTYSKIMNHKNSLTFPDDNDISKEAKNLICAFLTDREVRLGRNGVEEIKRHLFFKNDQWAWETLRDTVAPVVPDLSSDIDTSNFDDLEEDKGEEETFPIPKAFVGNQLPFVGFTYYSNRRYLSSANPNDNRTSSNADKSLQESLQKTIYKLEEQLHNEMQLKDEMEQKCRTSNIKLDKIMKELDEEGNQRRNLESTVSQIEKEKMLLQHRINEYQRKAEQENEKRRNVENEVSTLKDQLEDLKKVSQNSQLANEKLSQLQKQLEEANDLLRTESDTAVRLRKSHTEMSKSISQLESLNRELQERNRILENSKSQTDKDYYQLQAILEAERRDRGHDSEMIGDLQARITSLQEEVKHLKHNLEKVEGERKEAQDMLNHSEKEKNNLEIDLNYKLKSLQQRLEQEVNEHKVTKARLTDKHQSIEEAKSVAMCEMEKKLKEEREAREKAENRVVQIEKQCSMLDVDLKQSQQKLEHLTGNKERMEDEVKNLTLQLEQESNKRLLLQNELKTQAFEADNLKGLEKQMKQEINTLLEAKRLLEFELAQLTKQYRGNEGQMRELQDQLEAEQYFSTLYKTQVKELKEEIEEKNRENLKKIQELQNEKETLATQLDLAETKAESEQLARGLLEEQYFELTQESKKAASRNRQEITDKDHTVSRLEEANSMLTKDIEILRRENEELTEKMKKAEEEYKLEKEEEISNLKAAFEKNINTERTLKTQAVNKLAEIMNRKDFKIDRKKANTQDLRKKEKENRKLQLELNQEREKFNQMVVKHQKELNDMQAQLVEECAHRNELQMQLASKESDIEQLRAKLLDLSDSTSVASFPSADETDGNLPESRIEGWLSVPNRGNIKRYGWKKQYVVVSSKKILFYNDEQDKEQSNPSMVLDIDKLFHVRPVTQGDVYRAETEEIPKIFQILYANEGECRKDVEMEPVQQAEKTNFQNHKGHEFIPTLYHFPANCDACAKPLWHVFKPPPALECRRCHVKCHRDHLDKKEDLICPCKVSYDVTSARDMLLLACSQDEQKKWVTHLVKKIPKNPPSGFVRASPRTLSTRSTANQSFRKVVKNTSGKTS
Counter-ions that a name gives are not always drawn.
EXPERIMENTAL_ENDPOINT: IC50 (nM)

- NC1CCc2c1cc(F)c(C(=O)c1cccc3c(=O)[nH]ccc13)c2F (stereo not drawn) [Product P58, hydrochloride]: 3.85
- C[C@@H](N)c1ccc(F)c(C(=O)c2cccc3c(=O)[nH]ccc23)c1F [Product P56, hydrochloride]: 16.5
- Cc1cc([C@@H](C)N)ccc1C(=O)c1cccc2c(=O)[nH]ccc12 [Product P47, hydrochloride]: 6.78
- CC(N)c1cc(F)c(C(=O)c2cccc3c(O)nccc23)c(F)c1 (stereo not drawn) [Product P17, hydrochloride]: 4.2
- CC(N)c1cc(F)c(Cc2cccc3cnccc23)c(F)c1 (stereo not drawn) [Product P19, dihydrochloride]: 63
- C[C@@H](N)c1ccc(C(=O)c2cccc3c(=O)[nH]ccc23)c2c1CCCO2 [Product P45, hydrochloride]: 5
- Cc1c[nH]c(=O)c2cccc(C(=O)c3c(F)cc([C@@H](C)N)cc3F)c12 [Product P50, hydrochloride]: 5.4
- COc1c(C(C)N)ccc(C(=O)c2cccc3c(=O)[nH]ccc23)c1F (stereo not drawn) [Product P42, hydrochloride]: 9.6
- NC(CC1CCCCC1)c1cc(F)c(C(=O)c2cccc3c(=O)[nH]ccc23)c(F)c1 (stereo not drawn) [Product P129, hydrochloride]: 20.5

---

Biological target: human ROCK1 (Homo sapiens, UniProt Q13464)
Experiment: ROCK1 enzymatic test (LANCE, phosphorylation of Ulight-RRRSLLE (PLK) substrate)
Settings: human recombinant enzyme, 1 μM ATP, 50 nM Ulight-RRRSLLE (PLK) substrate, 30 minutes at ambient temperature; read-out: ROCK1(h), IC50
Method: Evaluation of the effects of compounds on human ROCK1 activity quantified by measuring the phosphorylation of the substrate Ulight-RRRSLLE (PLK) using a human recombinant enzyme and the LANCE® detection method. […] After the incubation, the reaction is stopped by adding 13 mM of EDTA. […] After a further 60 minutes, the fluorescence transfer is measured at lex=337 nm, lem=620 nm and lem=665 nm using a microplate reader (Envision, Perkin Elmer). […]
pIC50: −log10 of the molar value. Where a name gives a salt, the structure may show the parent alone.
EXPERIMENTAL_ENDPOINT: pIC50

• CC(C)(N)c1cc(F)c(C(=O)c2cccc3c(=O)[nH]ccc23)c(F)c1 [Product P27, hydrochloride] = 8.06
• CC(NCCO)c1cc(F)c(C(=O)c2cccc3c(=O)[nH]ccc23)c(F)c1 (stereo not shown) [Product P48, hydrochloride] = 8.13
• C[C@@H](N)c1cc(F)c(C(=O)c2cccc3cnccc23)c(F)c1 [Product P9, dihydrochloride] = 8.23
• NCC1CCOc2c(C(=O)c3cccc4c(=O)[nH]ccc34)cccc21 (stereo not shown) [Product P139, hydrochloride] = 7.06

---

system: arterial pressure of spontaneously hypertensive rats (SHR); assay: Evaluation on the arterial pressure in spontaneously hypertensive rats (SHR), telemetry; format: in vivo; details: SHR rat, PO 3 mg/kg, maximum change of arterial pressure relative to basal; read-out: SHR rat ΔAP % max, PO 3 mg/kg
Structures can show the parent of a compound that is named as a salt.
EXPERIMENTAL_ENDPOINT: change in vivo at 3 mg/kg (%)

* CC(C)(N)c1cc(F)c(C(=O)c2cccc3cnccc23)c(F)c1 [Product P24, dihydrochloride] | -52.5
* CC(NCCO)c1cc(F)c(C(=O)c2cccc3c(=O)[nH]ccc23)c(F)c1 (stereo not shown) [Product P48, hydrochloride] | -29.2
* Cc1c[nH]c(=O)c2cccc(C(=O)c3c(F)cc([C@@H](C)N)cc3F)c12 [Product P50, hydrochloride] | -16.8
* NC1CCc2c1cc(F)c(C(=O)c1cccc3c(=O)[nH]ccc13)c2F (stereo not shown) [Product P58, hydrochloride] | -52.7
* Cc1cc([C@@H](C)N)ccc1C(=O)c1cccc2c(=O)[nH]ccc12 [Product P47, hydrochloride] | -26.4
* CC(N)c1cc(F)c(C(=O)c2cccc3cnccc23)c(F)c1 (stereo not shown) [Product P6, dihydrochloride] | -35.6
* COc1c(C(C)N)ccc(C(=O)c2cccc3c(=O)[nH]ccc23)c1F (stereo not shown) [Product P42, hydrochloride] | -12.3
* CC(C)(N)c1cc(F)c(C(=O)c2cccc3c(=O)[nH]ccc23)c(F)c1 [Product P27, hydrochloride] | -54
* CC(N)c1cc(F)c(C(=O)c2cccc3c(O)nccc23)c(F)c1 (stereo not shown) [Product P17, hydrochloride] | -56.6
* NC(CC1CCCCC1)c1cc(F)c(C(=O)c2cccc3c(=O)[nH]ccc23)c(F)c1 (stereo not shown) [Product P129, hydrochloride] | -18.4
* C[C@@H](N)c1ccc(C(=O)c2cccc3c(=O)[nH]ccc23)c2c1CCCO2 [Product P45, hydrochloride] | -24
* C[C@@H](N)c1cc(F)c(C(=O)c2cccc3cnccc23)c(F)c1 [Product P9, dihydrochloride] | -53.7
* O=C(c1c(F)cc(C2CCCCN2)cc1F)c1cccc2c(=O)[nH]ccc12 (stereo not shown) [Product P75, hydrochloride] | -12.4
